# MEASUREMENT_TARGET: T1, cynomolgus monkey CD3 E&D complex protein (Sino Biological Inc., CT032-00323H) (cynomolgus monkey, UniProt Q95LI5 22-117; Q95LI8 22-105)
# T1 construct: bought heterodimer
# T1 sequence (Q95LI5 22-117, chain 1 of 2): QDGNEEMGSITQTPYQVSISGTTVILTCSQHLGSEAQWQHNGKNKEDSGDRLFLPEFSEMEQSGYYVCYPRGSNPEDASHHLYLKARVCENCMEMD
# T1 sequence (Q95LI8 22-105, chain 2 of 2): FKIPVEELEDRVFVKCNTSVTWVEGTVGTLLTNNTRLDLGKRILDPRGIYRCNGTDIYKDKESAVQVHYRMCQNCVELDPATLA
# ASSAY_METHOD_TEXT: BLI, antibody on sensor
Give kon for every item shown.

Input hzsp34.15 (antibody, human IgG1, lambda, L234A L235A, V domains shown, IgG1 L234A L235A, lambda) VH: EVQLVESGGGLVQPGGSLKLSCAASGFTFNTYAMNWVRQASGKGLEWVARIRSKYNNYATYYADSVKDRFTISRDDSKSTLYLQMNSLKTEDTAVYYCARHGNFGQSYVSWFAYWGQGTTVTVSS VL: QAVVTQEPSLTVSPGGTVTLTCRSSTGAVTTSNYANWVQQKPGQAPRTLIGGTNKRAPGVPARFSGSLLGGKAALTLLGAQPEDEAEYYCALWYSNLWVFGQGTKLTVLG . Output kon: 658000 M⁻¹ s⁻¹

Input sp34 (antibody, human IgG1, lambda, L234A L235A, V domains shown, mouse variable regions on human IgG1 L234A L235A and lambda constant regions; also called chimeric antibody sp34; mouse sp34) VH: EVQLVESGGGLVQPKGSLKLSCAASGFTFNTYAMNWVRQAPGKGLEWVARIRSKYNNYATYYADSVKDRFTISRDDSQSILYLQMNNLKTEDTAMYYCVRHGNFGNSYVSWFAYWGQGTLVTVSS VL: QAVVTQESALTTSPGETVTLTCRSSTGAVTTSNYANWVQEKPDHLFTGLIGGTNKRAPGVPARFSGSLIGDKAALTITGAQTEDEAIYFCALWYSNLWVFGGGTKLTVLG . Output kon: 1.23e+06 M⁻¹ s⁻¹

Input hzsp34.23 (antibody, human IgG1, lambda, L234A L235A, V domains shown, IgG1 L234A L235A, lambda) VH: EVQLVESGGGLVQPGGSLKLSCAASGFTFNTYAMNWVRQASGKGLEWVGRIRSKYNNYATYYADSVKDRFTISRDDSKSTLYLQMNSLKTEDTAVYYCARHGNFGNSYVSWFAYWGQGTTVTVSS VL: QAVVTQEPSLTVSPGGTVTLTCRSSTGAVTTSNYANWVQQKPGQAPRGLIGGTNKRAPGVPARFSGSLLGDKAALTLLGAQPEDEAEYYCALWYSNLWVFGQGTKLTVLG . Output kon: 1.31e+06 M⁻¹ s⁻¹

Input hzsp34.24 (antibody, human IgG1, lambda, L234A L235A, V domains shown, IgG1 L234A L235A, lambda; parent of the CDR mutants) VH: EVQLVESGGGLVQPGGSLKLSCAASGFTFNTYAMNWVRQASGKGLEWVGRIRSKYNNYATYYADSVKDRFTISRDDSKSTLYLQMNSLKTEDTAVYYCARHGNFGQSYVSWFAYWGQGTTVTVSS VL: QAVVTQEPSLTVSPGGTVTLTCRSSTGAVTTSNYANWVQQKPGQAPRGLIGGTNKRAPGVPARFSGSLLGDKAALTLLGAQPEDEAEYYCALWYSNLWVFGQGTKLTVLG . Output kon: 1.28e+06 M⁻¹ s⁻¹

Input hzsp34.14 (antibody, human IgG1, lambda, L234A L235A, V domains shown, IgG1 L234A L235A, lambda) VH: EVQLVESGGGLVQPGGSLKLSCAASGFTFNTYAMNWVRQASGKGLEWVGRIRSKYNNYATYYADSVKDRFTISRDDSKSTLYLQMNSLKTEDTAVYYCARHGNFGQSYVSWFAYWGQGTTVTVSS VL: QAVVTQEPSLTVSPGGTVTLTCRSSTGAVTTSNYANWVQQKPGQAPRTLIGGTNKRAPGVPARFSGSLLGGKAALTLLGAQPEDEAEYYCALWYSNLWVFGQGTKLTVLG . Output kon: 488000 M⁻¹ s⁻¹
